The measurements presented in this section are drawn from paper PMC8097421.

assay: in vivo; settings: male, cynomolgus, cynomolgus monkey, po, 30 mg/kg
Assay endpoint: Tmax

>>> print(df.to_string())
                                   compound  reported_measurement
0  CNc1nc(N)nc2c1ncn2[C@@H]1O[C@H](CO[P@](=O)(O)N[C@@H](C)C(=O)O)[C@@H](O)[C@@]1(C)F [AT-551]              1 to 4 h

* * *

assay: in vivo; conditions: male, cynomolgus monkey, AT-9010 concentration in liver tissue
Assay endpoint: concentration at 12 h (nM)

In [3]: df
Out[3]:
                                   compound  reported_measurement
0  C[C@@]1(F)[C@H](O)[C@@H](COP(=O)(O)OP(=O)(O)OP(=O)(O)O)O[C@H]1n1cnc2c(=O)[nH]c(N)nc21 [AT-9010]                    90

* * *

assay: in vivo; details: male, cynomolgus, cynomolgus monkey, po, 30 mg/kg
Assay endpoint: AUC(0-t)

In [3]: df
Out[3]:
                                   molecule  reported_measurement
0  C[C@@]1(F)[C@H](O)[C@@H](CO)O[C@H]1n1cnc2c(=O)[nH]c(N)nc21 [AT-273]             1.56 µM·h

* * *

experiment: in vitro; conditions: human, intracellular half-life (t1/2) of AT-9010
Assay endpoint: half-life at 10 µM

>>> print(df.to_string())
                            smiles_notation  reported_measurement
0  C[C@@]1(F)[C@H](O)[C@@H](COP(=O)(O)OP(=O)(O)OP(=O)(O)O)O[C@H]1n1cnc2c(=O)[nH]c(N)nc21            38 to 39 h

* * *

test: in vitro; conditions: human
Assay endpoint: CC50 at 5 days

In [3]: df
Out[3]:
                            smiles_notation  assay_endpoint  reported_measurement
0  CC(C)C(=O)OC[C@H]1O[C@@H](n2ccc(NO)nc2=O)[C@H](O)[C@@H]1O  CC50 at 5 days               > 19 µM

* * *

assay: in vivo; conditions: male, cynomolgus monkey, po, 30 mg/kg, estimated half-life of AT-9010 in kidney tissue
Assay endpoint: half-life

In [3]: df
Out[3]:
                                   compound  reported_measurement
0  C[C@@]1(F)[C@H](O)[C@@H](COP(=O)(O)OP(=O)(O)OP(=O)(O)O)O[C@H]1n1cnc2c(=O)[nH]c(N)nc21 [AT-9010]                 8.5 h

* * *

assay: in vivo; conditions: male, cynomolgus monkey, AT-9010 concentration in kidney
Assay endpoint: concentration at 12 h (nM)

In [3]: df
Out[3]:
                            smiles_notation  reported_measurement
0  C[C@@]1(F)[C@H](O)[C@@H](COP(=O)(O)OP(=O)(O)OP(=O)(O)O)O[C@H]1n1cnc2c(=O)[nH]c(N)nc21                   130

* * *

assay: Estimated oral bioavailability; conditions: in vivo, species and source not stated
Assay endpoint: bioavailability

In [3]: df
Out[3]:
                                   compound   assay_endpoint  reported_measurement
0  CNc1nc(N)nc2c1ncn2C1OC(COP(=O)(NC(C)C(=O)OC(C)C)Oc2ccccc2)C(O)C1(C)F (stereo not shown)  bioavailability                 ≥ 50%

* * *

experiment: in vivo; details: male, cynomolgus monkey, AT-9010 concentration in lung tissue
Assay endpoint: concentration at 12 h (nM)

>>> print(df.to_string())
                                   compound         assay_endpoint  reported_measurement
0  C[C@@]1(F)[C@H](O)[C@@H](COP(=O)(O)OP(=O)(O)OP(=O)(O)O)O[C@H]1n1cnc2c(=O)[nH]c(N)nc21 [AT-9010]  concentration at 12 h                   140

* * *

assay: in vivo; details: male, cynomolgus monkey, po, 30 mg/kg, estimated half-life of AT-9010 in lung tissue
Assay endpoint: half-life

                            smiles_notation  reported_measurement
0  C[C@@]1(F)[C@H](O)[C@@H](COP(=O)(O)OP(=O)(O)OP(=O)(O)O)O[C@H]1n1cnc2c(=O)[nH]c(N)nc21                 9.4 h
